The entries below are paired with their reported cAMP EC50.
- system: human glucagon receptor (human, UniProt P47871 26-477)
- assayProcedure: cell-based or functional assay
quantity: cAMP EC50

> print(dat)
                                     binder     result
1  IP131 (Fc fusion) YSEGTFTSDYSKLLEEEAVRLFIEWLLAGGGGGGSGGGGSGGGGSGGGGSATHTCPPCPAPEF   0.023 µM
2  IP291 (Fc fusion) YSEGTFTSDYSKLLEEECVRLFIEWLVKGGPGGGAPPPGCGGGGGGGGGGGGGGGGGACPPC  > 10.6 µM
3  IP292 (Fc fusion) YSEGTFTSDYSKLLEEEAVRCFIEWLVKGGPGGGAPPCGGGGGGGGGGGGGGGGGGGACPPC  > 13.6 µM

These measurements were taken from patent US20160185837A1.
